Conditions: Table S2: compounds exhibiting moderate to high PAMPA-BBB permeability
measurement-name: PAMPA-BBB Pe

1) C[C@@H]1O[C@@H](O[C@H]2CC[C@@H](O[C@H]3[C@H](O)C[C@H](c4ccc5c(c4O)C(=O)C4=C(C5=O)[C@@]5(O)C(=O)C[C@](C)(O[C@H]6CC[C@H](O[C@H]7C=CC(=O)[C@H](C)O7)[C@H](C)O6)C[C@@]5(O)C=C4)O[C@@H]3C)O[C@H]2C)C=CC1=O
17 10^-6 cm/sec
2) COc1cc(OC)c2c(c1)OC(c1ccccc1)CC2=O (stereo not shown)
176 10^-6 cm/sec
3) CCCCCC(=O)Cc1cc(O)cc(O)c1C(=O)Oc1cc(CC(=O)CCCCC)c(C(=O)O)c(OC)c1
>1000 10^-6 cm/sec
4) CN[C@@H]1C[C@H]2O[C@@](C)([C@@H]1OC)n1c3ccccc3c3c4c(c5c6ccccc6n2c5c31)C(=O)N[C@H]4O [7-hydroxystaurosporine (UCN-01), 7-hydroxystaurosporine]
158 10^-6 cm/sec
5) CSC(=S)NCc1c[nH]c2ccccc12
267 10^-6 cm/sec
6) C/C=C(\C)C(=O)N[C@@H](c1ccccc1)[C@@H](O)C(=O)O[C@H]1C[C@@]2(O)[C@@H](OC(=O)c3ccccc3)[C@@H]3[C@]4(OC(C)=O)CO[C@@H]4C[C@H](O)[C@@]3(C)C(=O)[C@H](OC(C)=O)C(=C1C)C2(C)C
79 10^-6 cm/sec
7) COc1cc2c(OC(C)=O)c3c(c(-c4ccc5c(c4)OCO5)c2cc1OC)C(=O)OC3
349 10^-6 cm/sec
8) c1cnc2c(-c3nccc4c3[nH]c3ccccc34)cccc2c1
352 10^-6 cm/sec
9) CN1Cc2c(ccc3c2OCO3)[C@@H]2[C@H]1c1cc3c(cc1C[C@@H]2O)OCO3
75 10^-6 cm/sec
10) CCCCCc1c2c(cc(O)c1C(=O)O)OC(=O)c1cc(C(=O)CCCC)c(OC)cc1O2
120 10^-6 cm/sec
11) COC(=O)C1=CO[C@@H](C)[C@@H]2CN3CC[C@]4(C(=O)Nc5c4ccc(OC)c5OC)[C@H]3C[C@H]12
46 10^-6 cm/sec
12) COc1ccc(-c2coc3cc(O)ccc3c2=O)c(O)c1O
14 10^-6 cm/sec
13) CC1(C)C(=O)C=C[C@@]2(C)C1C[C@@H](O)[C@]1(C)C2CC[C@@]2(C)[C@H](c3ccoc3)OC(=O)[C@H]3O[C@]321 (stereo partly shown)
108 10^-6 cm/sec

----------
Assay: in vitro
Conditions: PAMPA, PAMPA-BBB Pe, Table S2: compounds exhibiting moderate to high PAMPA-BBB permeability
Where a SMILES comes first, the peptide text is derived from it. [ ]: non-standard residue; d: D form. The star is where a group is joined. X2 = CCC(C)(C)NCCN(CCNC(C)(C)/C(C)=N/O)CCN*; Tyr(3-I) = N[C@@H](Cc1ccc(O)c(I)c1)C(=O)O
The label is y for Papp below 100 ×10⁻⁶ cm/s and n for Papp equal to or exceeding 100 ×10⁻⁶ cm/s.

1. CC1(C)O[C@@H]1COc1c2occc2cc2ccc(=O)oc12
n
2. C=C(C)[C@]12C[C@@H](C)[C@@]34O[C@](Cc5ccccc5)(O[C@@H]1[C@@H]3C=C(COC(=O)Cc1ccc(O)c(OC)c1)C[C@]1(O)C(=O)C(C)=C[C@@H]41)O2
y
3. CN1CCC2=C[C@@H](O)[C@@H]3OC(=O)c4cc5c(cc4[C@H]3C21)OCO5 (stereo partly drawn)
y
4. CCCCc1ccc(O)cc1
n
5. O=C1c2c(O)cc(O)cc2O[C@@H](c2ccc(O)cc2)[C@@H]1O
y
6. CC1=C(O)C(=O)C=C2C1=CC=C1[C@@]2(C)CC[C@@]2(C)[C@@H]3C[C@](C)(C(=O)O)CC[C@]3(C)CC[C@]12C
n
7. CCCCCc1cccc(=O)o1
y
8. COc1cc(OC)c2ccc(=O)oc2c1
n
9. CC(C)c1cccc(O)c1
n
10. O=C(/C=C/c1ccccc1)NCCO [IDROCILAMIDE]
n
11. COC(=O)C1=CO[C@@H](C)[C@@H]2CN3CCc4c([nH]c5ccccc45)[C@@H]3C[C@H]12 [TETRAHYDROALSTONINE]
n
12. COc1ccc(C(C)=O)c(O)c1
n
13. C/C(=C\c1csc(C)n1)[C@@H]1C[C@@H]2O[C@]2(C)CCC[C@H](C)[C@H](O)[C@@H](C)C(=O)C(C)(C)[C@@H](O)CC(=O)O1
y
14. CCC(C)(C)NCCN(CCNC(=O)CNC(=O)[C@H](CCCCN)NC(=O)[C@H](CC(C)C)NC(=O)[C@H](CC(C)C)NC(=O)[C@@H](NC(=O)[C@H](Cc1ccc(O)c(I)c1)NC(=O)[C@@H]1CCCN1C(=O)[C@H](CO)NC(=O)[C@@H](NC(=O)[C@H](CCC(N)=O)NC(=O)[C@H](CCC(=O)O)NC(=O)[C@H](CCC(N)=O)NC(=O)[C@H](CC(N)=O)NC(C)=O)C(C)C)[C@@H](C)O)CCNC(C)(C)/C(C)=N/O (Ac-NQEQVSP[Tyr(3-I)]TLLKG-X2)
n
15. CCC12C=CCN3CC[C@@]4(c5ccc(OC)cc5N(C)[C@H]4[C@@](O)(C(=O)OC)[C@@H]1OC(C)=O)[C@@H]32 (stereo partly drawn)
y
16. CCc1ccc(O)c(OC)c1
n
17. COC1=C[C@]23CCN(C)[C@H](Cc4ccc(OC)c(O)c42)C3=CC1=O
y
18. CC[C@H](C)[C@H]1O[C@]2(C=C[C@@H]1C)C[C@@H]1C[C@@H](C/C=C(\C)[C@@H](O[C@H]3C[C@H](OC)[C@@H](O[C@H]4C[C@H](OC)[C@@H](O)[C@H](C)O4)[C@H](C)O3)[C@@H](C)/C=C/C=C3\CO[C@@H]4[C@H](O)C(C)=C[C@@H](C(=O)O1)[C@]34O)O2
y
19. COc1ccc(-c2cc(=O)c3c(O)cc(O)c(-c4cc(-c5cc(=O)c6c(O)cc(OC)cc6o5)ccc4OC)c3o2)cc1
y
20. CCCCC[C@H](O)CC(=O)CCc1ccc(O)c(OC)c1
y
21. COC1=CC(=O)O[C@@H](/C=C/c2ccccc2)C1
n
22. O=[N+]([O-])c1c(Cl)cccc1-c1c[nH]cc1Cl
n
23. COc1cc2c(cc1O)C[C@H]1c3c(cc(O)c(OC)c3-2)CCN1C
y
24. COc1ccc(/C=C/c2cc(O)cc(O)c2)cc1O
y
25. C/C(=C\COc1c2ccoc2cc2oc(=O)ccc12)CCC(O)C(C)(C)O (stereo not drawn) [BERGAMOTTIN DIHYDROXYBERGAMOTTIN]
y
26. N[C@@H](Cc1cc(I)c(Oc2cc(I)c(O)c(I)c2)c(I)c1)C(=O)O
y
27. C=C(C)c1cc2cc(C(C)=O)c(O)cc2o1
n
28. CCOc1ccc(O)cc1 [P-HYDROXYPHENETOLE]
y
29. COc1ccc(-c2cnc(-c3cccnc3)o2)cc1 [O-[…]]
n
30. CC(C)[C@H]1C(=O)N[C@H](CO)Cc2c[nH]c3cccc(c23)N1C [[…]]
y
